Tested on: mushroom tyrosinase
experimental.details: Kinetic studies of tyrosinase inhibition (Lineweaver-Burk and secondary plots)
Assay type: biochemical, Agaricus bisporus
conditions.used: diphenolase activity of mushroom tyrosinase, L-DOPA; Lineweaver-Burk plot
observable: Inhibition Type

Here is how some compounds turned out for Inhibition Type.
CC(=NNC(N)=S)c1ccccc1N [TSC 4, 2’-aminoacetophenone thiosemicarbazone]: mixed-type
C/C(=N\NC(N)=S)c1cccc(O)c1 [TSC 8]: mixed-type
C/C(=N\NC(N)=S)c1cccc(N)c1 [TSC 5]: mixed-type
C/C(=N\NC(N)=S)c1ccc([N+](=O)[O-])cc1 [TSC 12]: mixed
COc1cccc(/C(C)=N/NC(N)=S)c1 [TSC 2]: mixed-type

Value of Inhibition Type reported for the compound CC(=NNC(N)=S)c1ccccc1O [TSC 7, 2’-hydroxyacetophenone thiosemicarbazone] is mixed-type

Value of Inhibition Type reported for the compound O=c1cc(CO)occ1O [Kojic acid, reference compound] is mixed
